System: A2780 cells
Experiment: Viability assay in A2780 (Cell Titer Glo)
Format: cell-based, human
Conditions: Homo sapiens; A2780 cells, 72 hrs; read-out: A2780 Cell prolif. EC50
attribute measured: EC50

Entry COCCOc1nc(-c2ccc3nc(NC(C)=O)sc3c2)cnc1N [Example 2-32] — recorded EC50 = < 10 µM

What the record says about Nc1ccc(-c2ccc3nc(NC(=O)CN4CCOCC4)sc3c2)cn1 [Example 2-16] : EC50 is < 25 µM

Record summary for Nc1ccc(-c2ccc3nc(NC(=O)OCCN4CCOCC4)sc3c2)cn1 [Example 2-24] : reported EC50 = < 25 µM

Entry under test: CC(=O)Nc1nc2ccc(-c3cnc(N)c(C(F)(F)F)c3)cc2s1 [Example 2-8] . Its EC50 was < 1 µM

// EC50 lookup, compound = COC(=O)Nc1nc2ccc(-c3ccc(N)nc3)cc2s1 [Example 2-3] , result: < 10 µM

###

System: A2780 cells
Assay: Viability assay in A2780 (Cell Titer Glo)
Format: cell-based, human
Details: Homo sapiens, A2780, 72 h, read-out: A2780 Cell prolif. EC50
Description: Cell viability was assessed with Cell Titer Glo assay, Promega. Cells were seeded in TC treated 96-well plates at a density of 1,000 (A2780 cells) per well in DMEM with 10% FBS, 1% Sodium Pyruvate, and 1% Penicillin Streptomycin for a minimum of 2 hrs prior to addition of compound. […] Raw data was imported in Abase and EC50s calculated with XL-fit data analysis software and are shown in Tables 1 and 2 in the column labeled “A2780 Cell prolif. […]
pEC50: −log10 of the molar value.
attribute measured: pEC50

Summary for this molecule, `COc1cc(-c2ccc3nc(NC(C)=O)sc3c2)cnc1N` : pEC50 is > 6.00

###

Target: PI3 K Alpha (Homo sapiens)
Sequence (P42336 whole entry): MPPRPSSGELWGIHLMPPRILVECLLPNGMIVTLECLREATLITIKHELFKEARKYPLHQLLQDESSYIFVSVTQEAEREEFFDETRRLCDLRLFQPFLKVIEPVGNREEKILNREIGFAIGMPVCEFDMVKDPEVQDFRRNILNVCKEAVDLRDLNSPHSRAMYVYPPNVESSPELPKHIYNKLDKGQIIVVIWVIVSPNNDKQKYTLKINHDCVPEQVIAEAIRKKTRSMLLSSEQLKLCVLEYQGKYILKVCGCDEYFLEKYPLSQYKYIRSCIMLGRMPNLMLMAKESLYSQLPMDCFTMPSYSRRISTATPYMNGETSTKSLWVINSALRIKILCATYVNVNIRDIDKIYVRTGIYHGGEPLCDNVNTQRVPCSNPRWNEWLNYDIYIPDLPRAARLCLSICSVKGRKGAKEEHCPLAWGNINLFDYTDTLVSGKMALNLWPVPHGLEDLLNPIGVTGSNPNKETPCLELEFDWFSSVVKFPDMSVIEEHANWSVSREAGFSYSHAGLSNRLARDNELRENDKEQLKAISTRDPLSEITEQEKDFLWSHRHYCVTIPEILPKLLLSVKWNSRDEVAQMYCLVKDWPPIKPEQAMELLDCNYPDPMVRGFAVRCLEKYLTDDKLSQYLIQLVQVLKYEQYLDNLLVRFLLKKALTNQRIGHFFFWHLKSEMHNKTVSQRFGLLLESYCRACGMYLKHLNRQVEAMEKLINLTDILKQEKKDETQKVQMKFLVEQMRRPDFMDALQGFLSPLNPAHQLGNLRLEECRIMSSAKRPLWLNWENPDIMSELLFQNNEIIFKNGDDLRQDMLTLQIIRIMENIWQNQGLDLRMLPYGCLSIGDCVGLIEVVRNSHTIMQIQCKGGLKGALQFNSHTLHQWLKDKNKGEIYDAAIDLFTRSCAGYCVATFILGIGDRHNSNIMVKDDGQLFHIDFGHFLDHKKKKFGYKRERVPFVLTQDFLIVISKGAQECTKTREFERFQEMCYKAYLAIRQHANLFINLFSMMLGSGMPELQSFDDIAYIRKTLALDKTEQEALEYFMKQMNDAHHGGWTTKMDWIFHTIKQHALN
Sequence (P27986 whole entry partner): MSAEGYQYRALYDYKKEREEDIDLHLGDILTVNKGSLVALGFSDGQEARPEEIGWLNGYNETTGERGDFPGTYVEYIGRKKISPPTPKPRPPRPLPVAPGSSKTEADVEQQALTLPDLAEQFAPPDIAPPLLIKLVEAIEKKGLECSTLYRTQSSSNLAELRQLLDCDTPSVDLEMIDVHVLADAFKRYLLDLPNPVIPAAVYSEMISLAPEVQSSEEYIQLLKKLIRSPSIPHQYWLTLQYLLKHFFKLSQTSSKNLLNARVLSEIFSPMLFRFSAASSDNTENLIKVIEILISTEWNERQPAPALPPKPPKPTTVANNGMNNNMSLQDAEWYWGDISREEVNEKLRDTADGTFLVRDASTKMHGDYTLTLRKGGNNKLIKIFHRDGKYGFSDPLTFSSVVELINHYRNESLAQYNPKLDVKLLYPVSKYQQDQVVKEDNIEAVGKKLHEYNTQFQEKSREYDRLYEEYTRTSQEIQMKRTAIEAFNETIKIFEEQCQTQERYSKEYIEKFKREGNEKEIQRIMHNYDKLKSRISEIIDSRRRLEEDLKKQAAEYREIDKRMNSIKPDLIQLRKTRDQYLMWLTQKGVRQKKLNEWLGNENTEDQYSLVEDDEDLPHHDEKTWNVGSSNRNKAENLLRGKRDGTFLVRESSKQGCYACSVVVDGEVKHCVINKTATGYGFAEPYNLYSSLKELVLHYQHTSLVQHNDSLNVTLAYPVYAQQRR
Test: PI3 kinase phosphorylation assays (homogenous solution phase, one step solid phase, ATP depletion/KinaseGlo)
Type: biochemical
pIC50: −log10 of the molar value.
attribute measured: pIC50

Item CC(=O)Nc1nc2ccc(-c3cnc(N)c(C(F)(F)F)c3)cn2c1C#Cc1ccccn1 [Example 241] ; assay system PI3 K Alpha (Homo sapiens); pIC50 reported as > 6.00

The compound CC(=O)Nc1nc2ccc(-c3cnc(N)c(C(F)(F)F)c3)cn2c1C#Cc1ccncc1 [Example 68] , tested on PI3 K Alpha (Homo sapiens), showed pIC50 of > 6.00

Field pIC50 (PI3 K Alpha (Homo sapiens)), entry CC(=O)Nc1nc2ccc(-c3cnc(N)c(C(F)(F)F)c3)cn2c1C#Cc1cccnc1 [Example 83] : > 6.00

###

Tested on: A2780 cells
Assay: Viability assay in A2780 (Cell Titer Glo)
Type: cell-based, human
Settings: Homo sapiens; A2780 cells; read-out: A2780 Cell prolif. EC50
Protocol: Cell viability was assessed with Cell Titer Glo assay, Promega. Cells were seeded in TC treated 96-well plates at a density of 1,000 (A2780 cells) per well in DMEM with 10% FBS, 1% Sodium Pyruvate, and 1% Penicillin Streptomycin for a minimum of 2 hrs prior to addition of compound. […] Raw data was imported in Abase and EC50s calculated with XL-fit data analysis software and are shown in Tables 1 and 2 in the column labeled “A2780 Cell prolif. […]
attribute measured: EC50

# EC50 (compound: `CC(C)(C)OC(=O)N1CCC[C@H]1C(=O)Nc1cn2nc(-c3cnc(N)c(C(F)(F)F)c3)ccc2n1` ) is < 25 µM

# EC50 of `CC(=O)Nc1cn2cc(-c3cnc(N)c(-c4cccc(F)c4)c3)ccc2n1` = < 10 µM

Memo: `CC(=O)Nc1cn2nc(-c3cnc(N)c(-c4ccccc4Oc4ccccc4)c3)ccc2n1` , reported EC50: < 10 µM

Notebook: `CC(=O)Nc1cn2cc(-c3ccc(N)nc3F)ccc2n1` , EC50 read as < 10 µM

Item: `CC(=O)Nc1cn2cc(-c3cnc(N)c(N4CCN(C)CC4)n3)ccc2n1` | EC50: < 10 µM

Sample CC(C)(C)OC(=O)N1CCCCC1CCC(=O)Nc1cn2nc(-c3cnc(N)c(C(F)(F)F)c3)ccc2n1 (centres unmarked) ; EC50 observed: < 10 µM

// sample `CC(=O)Nc1cn2nc(-c3cnc(N)cc3C(F)(F)F)ccc2n1` , its EC50 was < 25 µM

Record summary for `Nc1ncc(-c2ccc3nc(NC(=O)[C@@H]4CCCCN4Cc4ccccc4)cn3c2)cc1C(F)(F)F` : reported EC50 = < 10 µM

# EC50 of `CC(=O)N1CCC[C@H]1C(=O)Nc1cn2cc(-c3cnc(N)c(C(F)(F)F)c3)ccc2n1` = < 25 µM

Lab book: EC50 of COCCOc1nc(-c2ccc3nc(NC(=O)C4CCN4)cn3c2)cnc1N (centres unmarked) noted as < 25 µM

Measured EC50 of `Nc1ncc(-c2ccc3nc(NC(=O)COC4CCNCC4)cn3c2)cc1C(F)(F)F` : < 10 µM

Kindly note the recorded EC50 for `CC(=O)Nc1cn2cc(-c3cnc(N)c(-c4cccc(OC(F)(F)F)c4)c3)ccc2n1` , which is < 1 µM

Entry `CC(=O)Nc1cn2cc(-c3cnc(N)nc3)ccc2n1` , EC50 reported as < 25 µM

EC50 recorded for this compound, `COc1ccc(C#Cc2c(NC(C)=O)nc3ccc(-c4cnc(N)c(C(F)(F)F)c4)cn23)cc1` , is < 10 µM

Just so you know, measured EC50 for `CC(=O)Nc1cn2cc(-c3cnc(N)c(OC4CCN(C)CC4)n3)ccc2n1` came out at < 25 µM

The compound identified as `CC(=O)Nc1cn2cc(-c3cnc(N)c(-c4ccc(C(F)(F)F)cc4)c3)ccc2n1` registered its EC50 at < 1 µM

Please fill in: EC50 reported for `CC(=O)Nc1cn2cc(-c3cnc(N)c(C(=O)NCCNS(C)(=O)=O)n3)ccc2n1` = < 25 µM
